Tested on: Bacillus subtilis
assay-summary: Antibacterial activity against Bacillus subtilis at 1000 ug/mL after 72 hrs by agar diffusion assay
Format: functional
test-settings: read-out: IZ
Hi there, I'd appreciate the recorded zone of inhibition at 1000 µg/mL for every entry that follows.
One number for each entry, in mm.

Here's what some known entries look like.
q: Return the recorded zone of inhibition at 1000 µg/mL value; entry: O=c1oc2ccc([N+](=O)[O-])cc2cc1-c1nc2ccccc2c2nc3ccccc3n12
a: 27

q: # return recorded zone of inhibition at 1000 µg/mL for entry O=c1oc2c(Br)cccc2cc1-c1nc2ccccc2c2nc3ccccc3n12
a: 28

q: Indicate the recorded zone of inhibition at 1000 µg/mL value for this molecule: CC1(C)S[C@@H]2[C@H](NC(=O)[C@H](N)c3ccccc3)C(=O)N2[C@H]1C(=O)O
a: 39

q: Indicate the recorded zone of inhibition at 1000 µg/mL value for this molecule: O=c1oc2ccc([N+](=O)[O-])cc2cc1-c1nc2ccccc2c2nc3c4nsnc4ccc3n12
a: 30

q: Fill in reported zone of inhibition at 1000 µg/mL for this entry: O=c1oc2c(Br)cc(Br)cc2cc1-c1nc2ccccc2c2nc3c4nsnc4ccc3n12
a: 41

q: Look up and state reported zone of inhibition at 1000 µg/mL for O=c1oc2c(Cl)cc(Cl)cc2cc1-c1nc2ccccc2c2nc3ccccc3n12
a: 42

Turning now to a further molecule:
q: Using the record for O=c1oc2ccccc2cc1-c1nc2ccccc2c2nc3c4nsnc4ccc3n12 , state its measured zone of inhibition at 1000 µg/mL.
a: 32

Data origin, for the record: ChEMBL document CHEMBL1641588
